# System: HT-29
# Protocol: NCI tumour cell line growth inhibition, 48 h
Active and inactive are the calls of the source. Cut-off read from the data, not from the text of the source: active = GI50 up to about 1.1 µM and inactive = higher.
Metric Name: GI50

Retrieve GI50 measured for O=C1CC2CCN(C(=O)c3ccccc3)CC2CCN1.O=C1CCC2CC(C(=O)c3ccccc3)CCC2CN1 (stereo not given) and print it.
> 100 µM (inactive)

Retrieve GI50 measured for C=CCNC(=S)N/N=C1\C(=O)Nc2ccc([N+](=O)[O-])cc21 and print it.
68.7 µM (inactive)

Retrieve GI50 measured for C=C(CN1CC2C[C@](C(=O)OC)(c3cc4ccccc4[nH]3)C1C(OC)C2OC)S(=O)(=O)c1ccccc1 (stereo not given in full) and print it.
2.72 µM (inactive)

Retrieve GI50 measured for O=C(O)C(CCc1ccccc1)N1C(=O)c2ccccc2C1=O (stereo not given) and print it.
> 100 µM (inactive)

Retrieve GI50 measured for Cc1nc2c(nc1C)-c1c(c3c(n1C)C(=O)CCC3)C(=O)C2=O and print it.
1.98 µM (inactive)

---

# Tested on: PC-3
# Protocol: NCI tumour cell line growth inhibition, 48 h
Active and inactive are the calls of the source. Rule as the data show it: active = GI50 up to about 1.1 µM and inactive = higher.
Metric Name: GI50

Retrieve GI50 measured for O=[N+]([O-])c1ccc(OP(=O)(O)OCC2OC(CP(=O)(O)O)C(O)C2O)cc1 (stereo unspecified) and print it.
> 100 µM (inactive)

Retrieve GI50 measured for O=Cc1[nH]c(=O)[nH]c(=O)c1CCl and print it.
> 100 µM (inactive)

Retrieve GI50 measured for CCOC(=O)c1sc(N/N=C2\NC(=O)/C(=C/c3ccc([N+](=O)[O-])cc3)S2)nc1C and print it.
25.6 µM (inactive)

Retrieve GI50 measured for CSC1=N/C(=C\c2cccs2)C(=O)N1CN1CCOCC1 and print it.
50.8 µM (inactive)

Retrieve GI50 measured for Cc1cc(=O)oc2c(CNC(C(=O)O)C(C)O)c(O)ccc12 (stereo unspecified) and print it.
> 100 µM (inactive)

Retrieve GI50 measured for CCOC(=O)CSc1c(C(=O)OCC)c(=O)n(-c2ccccc2)c(=S)n1-c1ccccc1 and print it.
4.61 µM (inactive)

Retrieve GI50 measured for CN(C)c1ccc(C2SCC(=O)N2NS(=O)(=O)c2cccc(C(=O)O)c2)cc1 (stereo unspecified) and print it.
> 100 µM (inactive)

Retrieve GI50 measured for Cc1c2c(c(C)c3c[n+](C)ccc13)Oc1ccccc1O2 and print it.
16.3 µM (inactive)

Retrieve GI50 measured for CCOC(=O)C(NCc1cccc(C(F)(F)F)c1)(NC(=O)c1ccccc1)C(F)(F)F (stereo unspecified) and print it.
30.5 µM (inactive)

Retrieve GI50 measured for CC1CCC/C1=C(/I)C(=O)c1ccccc1 (stereo unspecified) and print it.
> 100 µM (inactive)

Retrieve GI50 measured for O=C(c1cccs1)N(C(=S)OC12CC3CC(CC(C3)C1)C2)c1ccccc1 and print it.
22.8 µM (inactive)

---

# Tested on: T47D
# Protocol: NCI tumour cell line growth inhibition, 48 h
The source made the active and inactive calls. No stated cut-off is given here; in the data, active = GI50 up to about 1.1 µM and inactive = higher.
Metric Name: GI50

# annotated cases, reported GI50 shown
Retrieve GI50 measured for C[N+]1(C)CC[N+](C)(C)[BH-]1C(O)O and print it.
> 100 µM (inactive)

Retrieve GI50 measured for COc1cccc2nc3c(C(=O)NCCN(C)C)cccc3cc12 and print it.
3.65 µM (inactive)

Retrieve GI50 measured for CC(=O)OC1C(C)OC(OC2C[C@](O)(C(C)=O)Cc3c(O)c4c(c(O)c32)C(=O)c2ccccc2C4=O)C(F)C1OC(C)=O (stereo not given in full) and print it.
0.522 µM (active)

Further cases:
Retrieve GI50 measured for CC1(C)CCC(=O)NC1CC(=O)CC1NC(=O)CCC1(C)C (stereo not given) and print it.
> 100 µM (inactive)

Retrieve GI50 measured for Cc1nc2cc(F)c(F)cc2[nH]c1=O and print it.
> 100 µM (inactive)

Retrieve GI50 measured for CN(C)c1ccc(C2SCC(=O)N2NS(=O)(=O)c2cccc(C(=O)O)c2)cc1 (stereo not given) and print it.
> 100 µM (inactive)

Retrieve GI50 measured for COc1cc(S(=O)(=O)Nc2nc(-c3ccc(N4C(=O)/C(=C\c5cccs5)N=C4c4ccccc4)cc3)cs2)ccc1Cl and print it.
45.8 µM (inactive)

Retrieve GI50 measured for Cc1cc(=O)oc2c(CNC(C(=O)O)C(C)O)c(O)ccc12 (stereo not given) and print it.
> 100 µM (inactive)

Retrieve GI50 measured for Cn1c2ccccc2n2c3ncccc3/c(=N/CCCC(=O)O)c(C#N)c12 and print it.
> 100 µM (inactive)

Retrieve GI50 measured for C=C1CC(COc2ccc3c(C)cc(=O)oc3c2)(c2ccccc2)OC1=O (stereo not given) and print it.
2.24 µM (inactive)

---

# Tested on: HL-60
# Protocol: NCI tumour cell line growth inhibition, 48 h
The source made the active and inactive calls. Rule as the data show it: active = GI50 up to about 1.1 µM and inactive = higher.
Metric Name: GI50

# annotated cases, reported GI50 shown
Send back HL-60 GI50 of COc1ccc(/C=C2\N=C(c3ccccc3)N(Nc3nnc(NN4C(=O)/C(=C/c5ccc(OC)cc5)N=C4c4ccccc4)c4ccccc34)C2=O)cc1 only.
30 µM (inactive)

Send back HL-60 GI50 of Cc1c2ncccc2c(C)c2c1[nH]c1ccc(O)cc12 only.
2.32 µM (inactive)

Send back HL-60 GI50 of N#Cc1c(-c2ccccc2)cn(C(=O)c2ccccc2)c1N only.
> 100 µM (inactive)

Send back HL-60 GI50 of COC12C(COC(=O)NCCO)C3=C(C(=O)C(C)=C(N)C3=O)N1CC1NC12 (stereo unspecified) only.
58.9 µM (inactive)

Send back HL-60 GI50 of C1=CC2(C=CC13O[C@H](C1CCCCC1)[C@@H](C1CCCCC1)O3)O[C@H](C1CCCCC1)[C@@H](C1CCCCC1)O2 only.
> 50 µM (inactive)

Send back HL-60 GI50 of CCOC(=O)c1c2ccc(/C=C/c3ccccc3)ccc-2c(C(=O)OCC)c1N only.
> 100 µM (inactive)

Send back HL-60 GI50 of CN(C)CCNC(=O)Cn1cnc2cccc([N+](=O)[O-])c2c1=O only.
> 100 µM (inactive)

Send back HL-60 GI50 of Cc1cc(C)c(C(=O)O)c(SSc2cc(C)cc(C)c2C(=O)O)c1 only.
> 100 µM (inactive)

Send back HL-60 GI50 of C#C[C@]1(O)CC[C@H]2[C@@H]3CCC4=C/C(=N/CCOC(=O)c5cccc6cc7ccccc7nc56)CC[C@@H]4[C@H]3CC[C@@]21C only.
> 100 µM (inactive)

Send back HL-60 GI50 of CN(C)Cc1cc(C(=O)/C=C/c2ccc([N+](=O)[O-])cc2)cc(CN(C)C)c1O only.
2.07 µM (inactive)

Further cases:
Send back HL-60 GI50 of CC(NC(=O)c1ccccc1)(C(=O)O)C(=O)O only.
> 100 µM (inactive)

Send back HL-60 GI50 of OC(CC(O)(C(F)(F)F)C(F)(F)F)C(O)c1ccco1 (stereo unspecified) only.
> 10 µM (inactive)

Send back HL-60 GI50 of C=C(CN1CC2C[C@](C(=O)OC)(c3cc4ccccc4[nH]3)C1C(OC)C2OC)S(=O)(=O)c1ccccc1 (stereo partly specified) only.
1.92 µM (inactive)

---

# Test system: NCI/ADR-RES
# Protocol: NCI tumour cell line growth inhibition, 48 h
Activity calls are given as the source filed them. Cut-off read from the data, not from the text of the source: active = GI50 up to about 1.1 µM and inactive = higher.
In this exercise, the only acceptable responses are active, inactive

Recorded call for CCCC/N=C(/c1ccccc1)N1CCOCC1 ?
inactive

Further cases:
Recorded call for CSc1c(C#N)c(O)n(-c2ccc(Cl)cc2)c(=O)c1C#N ?
inactive

Recorded call for Nc1nc(Cl)cc(NCC2(CO)CC=CC2)n1 ?
inactive

Recorded call for COc1ccc2[nH]c3c(C)c4ncccc4c(C)c3c2c1 ?
inactive

Recorded call for CN1C(=O)CN=C(c2ccccc2F)c2cc(N=C=S)ccc21 ?
inactive

Recorded call for Nc1nc(=O)c(/N=N/c2ccccc2)c(C(=O)O)[nH]1 ?
inactive

Recorded call for Cc1c2c(c(C)c3c[n+](C)ccc13)Oc1ccccc1O2 ?
inactive

Recorded call for C=C(CN1CC2C[C@](C(=O)OC)(c3cc4ccccc4[nH]3)C1C(OC)C2OC)S(=O)(=O)c1ccccc1 (stereo partly specified) ?
inactive

Recorded call for S=C1c2cc(Cl)ccc2N=C(NC2CCCC2)C2CSCN12 (stereo unspecified) ?
inactive

---

Below, each of the compounds is paired with its reported GI50 value.
# System: T47D
# Protocol: NCI tumour cell line growth inhibition, 48 h
Active and inactive are the calls of the source. Cut-off read from the data, not from the text of the source: active = GI50 up to about 1.1 µM and inactive = higher.

# annotated cases, reported GI50 shown
Retrieve GI50 measured for Cc1ccc(-c2cc(-c3ccc(Cl)cc3)nc(/N=C3\C(=O)N(CN(C)C)c4ccccc43)n2)cc1 and print it.
28.8 µM (inactive)

Retrieve GI50 measured for COc1ccc(C2c3cc4c(cc3OC(N3CCOCC3)C2C)OCO4)c(OC)c1 (stereo unspecified) and print it.
5.83 µM (inactive)

Retrieve GI50 measured for Cc1ccc(S(=O)(=O)N2CCN(S(=O)(=O)c3ccc(C)cc3)Cc3ccccc3C2)cc1 and print it.
28.2 µM (inactive)

Retrieve GI50 measured for C(=N\c1ccc(-c2nc3ccccc3s2)cc1)/c1ccco1 and print it.
41.6 µM (inactive)

Retrieve GI50 measured for COC(=O)CCC1=NCC(C)(C)O1 and print it.
> 10 µM (inactive)

Further cases:
Retrieve GI50 measured for O=C(c1cccs1)N(C(=S)OC12CC3CC(CC(C3)C1)C2)c1ccccc1 and print it.
76.7 µM (inactive)

Retrieve GI50 measured for COc1cc2c(cc1OC)C1CCc3ccccc3CN1CC2 (stereo unspecified) and print it.
> 100 µM (inactive)

Retrieve GI50 measured for N#CC1=C(N)N(c2ccccc2)C(c2ccccc2)C1(C#N)C#N (stereo unspecified) and print it.
10.4 µM (inactive)

Retrieve GI50 measured for CC1(C)OP(=O)(O)CC1=O and print it.
> 100 µM (inactive)

Retrieve GI50 measured for Cn1c2ccccc2c2ccc3c(c21)C(=O)c1ccc2c4ccccc4n(C)c2c1C3=O and print it.
> 100 µM (inactive)

Retrieve GI50 measured for CSc1nc(C#N)c(/N=C\N(C)C)n1C and print it.
> 100 µM (inactive)
